Data origin, for the record: the METLIN SMRT retention time set (Domingo-Almenara et al. 2019)

Experiment: gradient 5% acetonitrile 3 min, to 50% in 2 min, to 85% in 15 min, held 3 min, 100 µL/min
Details: column: Zorbax Extend-C18 2.1 x 50 mm; eluents: water / acetonitrile, 0.1% formic acid
Recorded RP-LC retention time by entry

{"columns": ["compound", "RP-LC retention time"],
 "data": [
  ["CC(=O)Nc1ccc(NC(=O)c2cccc(N3C(=O)NC4CC3(C)Oc3ccccc34)c2)cc1 (stereo not given)", "702 s"],
  ["O=C(CCNc1c(-c2ccccc2)nc2cnccn12)NCc1cccs1", "662 s"],
  ["COc1ccc(-c2ncc3c(n2)CCN(C(=O)Nc2ccc(C)cc2Cl)C3)cc1", "1020 s"],
  ["Cn1c(=O)c2cc(C(=O)Nc3ccc(F)c(Cl)c3)sc2n(C)c1=O", "847 s"],
  ["O=C(NCc1cccs1)N1CCN(c2nc3c(F)cc(F)cc3s2)CC1", "849 s"],
  ["CCn1ccc2c(cc(C(=O)Nc3ccc(F)cc3C)n2C)c1=O", "726 s"],
  ["CCOc1ccccc1NC(=O)N1C[C@H](c2nc(-c3cccnc3)no2)[C@@H](C)C1", "937 s"],
  ["CC(C)CNC(=O)c1cc(=O)[nH]c2ccccc12", "729 s"],
  ["CCn1nccc1-c1cccc(-c2noc(CNS(=O)(=O)c3ccccc3)n2)c1", "884 s"],
  ["COC(=O)c1cc2c(=O)n(-c3ccc4c(c3)OCCO4)ccc2nc1C", "780 s"],
  ["CCc1ccc(NC(=O)C2CCN(S(C)(=O)=O)c3ccccc3O2)cc1 (stereo not given)", "912 s"],
  ["CC(C)(CSc1nnnn1-c1ccccc1)NS(=O)(=O)c1ccccc1", "862 s"],
  ["Cc1ccc(CNC(=O)N2CCCC(C)(C(=O)NCc3ccc(C)cc3)C2)cc1 (stereo not given)", "947 s"],
  ["COc1cc(OC)c(NC(=O)N2CCc3cn(C)c4cccc(c34)C2)cc1Cl", "887 s"],
  ["COc1ccc(NC(=O)C2=C(C)C(=O)OC23CCCCCC3)cc1OC", "887 s"],
  ["CC(C)c1nnc(-c2cccnc2N2CCN(C(=O)CC3CCCC3)CC2)o1", "872 s"],
  ["CC(C)NC(=O)N1CCCC(c2cccc(C(=O)NCCN3CCCCC3)c2)C1 (stereo not given)", "608 s"],
  ["COc1ccc2c(c1)CC(NC(=O)N1CCN(Cc3ccc4c(c3)OCO4)CC1)CO2 (stereo not given)", "652 s"],
  ["CCCCc1ccc(N2C=C(C#N)S(=O)(=O)c3ccccc32)cc1", "1150 s"],
  ["CCOC(=O)c1c(C)c(CCC(=O)N2CCN(CC)CC2)n(CC)c1C", "631 s"],
  ["Cc1ccccc1C(=O)NCc1nn(C)c2ccccc12", "857 s"],
  ["COc1ccc(NS(=O)(=O)c2cc3c(s2)CCN(C(=O)C2CC2)C3)cc1F", "762 s"],
  ["O=C(NC1CCCCC1)c1ccn[nH]1", "642 s"],
  ["Cc1nc2ccn(Cc3ccco3)c(=O)c2cc1C(=O)NCc1ccco1", "718 s"],
  ["CC(=O)c1cccc(NC(=O)N2C[C@H](c3nc(-c4ccncc4)no3)[C@@H](C)C2)c1", "674 s"],
  ["CCC(=O)N1c2ccc(S(=O)(=O)CCC(=O)N3CCN(c4ccc(OC)cc4)CC3)cc2CC1C (stereo not given)", "785 s"],
  ["O=C(c1ccc(OCC2CCCN(C(=O)C3CCCC3)C2)cc1)N1CCCC1 (stereo not given)", "846 s"],
  ["Cc1ccc(CN2C(=O)NC3(CCN(C(=O)c4cccn4C)CC3)C2=O)cc1", "787 s"],
  ["CCOC(=O)C1CCCN(C(=O)Cn2cnc(-c3cccs3)cc2=O)C1 (stereo not given)", "684 s"],
  ["Cc1ccc(S(=O)(=O)N(C)CC2CCOCC2)cc1Cl", "894 s"],
  ["CC1CCN(c2ncc3c(n2)CCC(C(=O)NCCc2cccnc2)C3)CC1 (stereo not given)", "598 s"],
  ["Cc1ccc(-n2c(C)c(C)c3c(=O)n(CC(=O)NC4CC4)cnc32)cc1", "769 s"],
  ["O=C(Cn1ccn2nc(-c3ccccc3)c(CO)c2c1=O)Nc1ccccc1Cl", "808 s"],
  ["O=C(NCC1CCOCC1)c1ccc2[nH]ccc2c1", "742 s"],
  ["COc1ccc(CNC(=O)Cn2c(=O)cc(-c3nc(C)no3)c3ccccc32)cc1", "810 s"],
  ["Cc1ccc(-c2noc(C3CCCN3S(=O)(=O)c3ccc(Cl)cc3C)n2)cc1 (stereo not given)", "1320 s"],
  ["N#Cc1ccc(NS(=O)(=O)c2c[nH]c3ncccc23)cc1", "686 s"],
  ["O=C(N1CC(c2nc(-c3cccs3)no2)C1)C1(c2ccccc2)CCOCC1", "814 s"],
  ["O=C1CCC2(O)[C@@H]3Cc4ccc(O)c5c4[C@]2(CCN3Cc2ccoc2)C1O5 (stereo not given in full)", "609 s"],
  ["C=CCN(CC=C)c1nc(-c2ccccc2)nc2ccccc12", "770 s"]
]}
